# Test system: HOP-62
# TEST NAME: NCI tumour cell line growth inhibition, 48 h
Calls of active or inactive are those of the source. No stated cut-off is given here; in the data, active = GI50 up to about 1.1 µM and inactive = higher.
Entries and their measured GI50 follow.
ATTRIBUTE MEASURED: GI50

* COC12c3ccccc3-c3ccccc3C1[C@@H](C(=O)O)[C@H]2C(=O)O (some centres undefined) | > 10 µM (inactive)
* COC(=O)C1=C(OC(=O)/C(=C/c2ccccc2)c2ccc(OC)cc2)C(C(=O)OC)[C@@]2(O)[C@@H](C(=O)OC)[C@H](C)C[C@@H]1[C@@H]2C(=O)OC (some centres undefined) | > 100 µM (inactive)
* COc1cc2c(cc1C)NC(=O)/C2=C/c1c(Cl)[nH]c2cc(C)c(OC)cc12 | 10.1 µM (inactive)
* COc1ccc2nc3n(c2c1)C(c1c(Cl)cccc1Cl)SC3 (centres undefined) | 59.7 µM (inactive)

====

# Test system: SK-MEL-28
# TEST NAME: NCI tumour cell line growth inhibition, 48 h
Active and inactive are the calls of the source. Rule as the data show it: active = GI50 up to about 1.1 µM and inactive = higher.
ATTRIBUTE MEASURED: GI50

* NC(=S)N/N=C1\C(=O)N(CCc2ccccc2)C(=O)C1C(=O)NCCc1ccccc1 (stereo unspecified) | > 100 µM (inactive)
* Oc1ccc2ccccc2c1/N=N/c1ccsc1 | > 100 µM (inactive)
* NNC1=N/C(=C\c2ccccc2O)C(=O)N1 | 60.8 µM (inactive)
* CN(C)CCCNc1ncnc2c1ncn2C1OC(CO)C(O)C1O (stereo unspecified) | > 100 µM (inactive)
* O=c1[nH]cnc2c1sc1nc3ccccc3n12 | > 100 µM (inactive)
* O=C1C([P+](c2ccccc2)(c2ccccc2)c2ccccc2)=C([O-])C(=Cc2ccc(Cl)c(Cl)c2)C([O-])=C1[P+](c1ccccc1)(c1ccccc1)c1ccccc1 | 2.49 µM (inactive)
* COC(=O)c1c(N)n[nH]c1N | > 100 µM (inactive)
* CCC(C)CN1C(=O)NC(Cc2ccccc2)C1=O (stereo unspecified) | > 100 µM (inactive)
* O=c1[nH]/c(=C/c2cccs2)c(=O)[nH]/c1=C/c1ccc(OCc2ccccc2)cn1 | 3.3 µM (inactive)
* O=C(O)[C@@H](NS(=O)(=O)c1ccc(F)cc1)c1ccccc1 | > 100 µM (inactive)
* CCOC(=O)c1c(N2CCCC2)ncn(Cc2ccccc2)c1=S | > 100 µM (inactive)

====

# Tested on: NCI-H460
# TEST NAME: NCI tumour cell line growth inhibition, 48 h
Calls of active or inactive are those of the source. No stated cut-off is given here; in the data, active = GI50 up to about 1.1 µM and inactive = higher. Non-standard residues stand in square brackets, D forms with d. Residues, ends and D or L forms follow the SMILES beside them. ξ: configuration not given here. *: point of attachment. Cbz = O=C(OCc1ccccc1)*; ξK = NCCCCC(N)C(=O)O
Reported GI50 is given for each of the following molecules.
ATTRIBUTE MEASURED: GI50

* O=[N+]([O-])c1ccc(C(=S)Nc2ccccc2)o1 | 3.19 µM (inactive)
* O=C(O)[C@@H](NS(=O)(=O)c1ccc(F)cc1)c1ccccc1 | > 100 µM (inactive)
* O=C(CCCC(=O)N1CC(CCl)c2ccc([N+](=O)[O-])cc21)N1CC(CCl)c2ccc([N+](=O)[O-])cc21 (stereo not given) | 38.4 µM (inactive)
* C[C@]12CC[C@H](O)CC1CCC[C@@H]2O (stereo not given in full) | > 100 µM (inactive)
* NCCCCC(NC(=O)OCc1ccccc1)C(=O)NCC(N)=O (stereo not given) (Cbz-[ξK]-Gly-NH2) | > 100 µM (inactive)

====

The entries below come with measured GI50 values attached.
# Tested on: NCI-H460
# TEST NAME: NCI tumour cell line growth inhibition, 48 h
The source made the active and inactive calls. Cut-off read from the data, not from the text of the source: active = GI50 up to about 1.1 µM and inactive = higher.
ATTRIBUTE MEASURED: GI50

* Nc1cc2c3c(cccc3c1)NC2=O | 8.39 µM (inactive)
* C=C(C)C(CC=C(C)C)CC12CC(CC=C(C)C)C(C)(C)C(CC=C(C)C)(C(=O)C(Cc3ccc(O)c(O)c3)=C1O)C2=O (stereo not drawn) | > 100 µM (inactive)
* COc1ccc2cc3[n+](cc2c1OC)CCc1cc2c(cc1-3)OCO2 | 14.9 µM (inactive)
* COc1ccc2c(c1)/C(=C\c1cccc(/C=C3/C(=O)Nc4ccc(OC)cc43)n1)C(=O)N2 | 1.4 µM (inactive)
* COc1ccc2[nH]c3c(C)c4cc[n+](C)cc4c(C)c3c2c1 | 1.26 µM (inactive)
* COc1ccc2c(c1)[n+]([O-])c(/C(C)=N/NC(=O)CC#N)c[n+]2[O-] | > 100 µM (inactive)
* CC(/C=C/c1ccccc1)=N\NC(=S)N/N=C(C)/C=C/c1ccccc1 | 5.11 µM (inactive)
* NS(=O)(=O)c1ccc(CNc2nc(-c3cccs3)nc3ccc(I)cc23)cc1 | 15 µM (inactive)
* COc1cc(OC)cc(C(=O)CC(=O)c2cc(OC)cc(OC)c2)c1 | 56.9 µM (inactive)
* O=C(O)CCC(NC(=O)c1ccc(CNc2nc3cc(C(F)(F)F)ccc3nc2C(=O)O)cc1)C(=O)O (stereo not drawn) | > 100 µM (inactive)
* CC[C@@]1(O)C(=O)OCc2c1cc1n(c2=O)Cc2c-1nc1ccccc1c2CC[Si](C)(C)C [COSITECAN] | < 0.01 µM (active)
* CC(C)=CCC1=C(OCC(=O)O)C(=O)c2ccccc2C1=O | 34.5 µM (inactive)
* CCOC(=O)C1(Cc2ccccc2)Cc2ccccc2C1=O (stereo not drawn) | 27.2 µM (inactive)
* Nc1nc(SCc2ccccc2Cl)c2[nH]cnc2n1 | 48.9 µM (inactive)
* NNC1=N/C(=C\c2ccccc2O)C(=O)N1 | 20.2 µM (inactive)
* CCc1ccccc1NC(=O)CC1NC(=O)CS1 (stereo not drawn) | > 100 µM (inactive)
* N/N=C(\N)SCc1ccc(N=C=S)cc1 | > 100 µM (inactive)
* COC(=O)c1c(N)n[nH]c1N | > 100 µM (inactive)
* COC12c3ccccc3-c3ccccc3C1[C@@H](C(=O)O)[C@H]2C(=O)O (stereo partly drawn) | > 10 µM (inactive)
* CO/N=C(\C(=O)Nc1cncs1)c1csc(N)n1 | > 10 µM (inactive)
* O=C1/C(=C/c2ccccc2)CN(C(=O)CCN2CCCC2)C/C1=C\c1ccccc1 | 1.77 µM (inactive)
* COc1ccc(/C=C/c2cc(OC)c(OCc3ccccc3)c(OC)c2)cc1 | > 100 µM (inactive)
* CCCCC(/C=C\COC1CCCCO1)=C/C(=O)OCC (stereo not drawn) | 98.6 µM (inactive)

====

Recorded measurements of GI50, one per entry
# Test system: NCI-H23
# TEST NAME: NCI tumour cell line growth inhibition, 48 h
Calls of active or inactive are those of the source. Rule as the data show it: active = GI50 up to about 1.1 µM and inactive = higher.
ATTRIBUTE MEASURED: GI50

• Cc1cccc(C(=O)c2cccc3ccccc23)c1C(=O)O = > 100 µM (inactive)
• CCOC1OC(C)(C=C(C#N)C#N)CCC1C (stereo unspecified) = 29.7 µM (inactive)
• CC1(C(=O)O)CCCC1C(=O)O (stereo unspecified) = > 100 µM (inactive)
• O=C(n1c2ccccc2c2nnc(S)nc21)C(F)(F)F = > 100 µM (inactive)
• COc1cc2c(cc1OC)-c1[nH]c3ccc(C#N)cc3c1CC(=O)N2 = 12.2 µM (inactive)
• Cc1cc2c(cc1C)[n+]([O-])c(C(=O)/C=C/c1ccc3c(c1)OCO3)c(C)[n+]2[O-] = 38.3 µM (inactive)
• Cc1ccc(Cc2nnc(S)[nH]2)cc1 = 81.3 µM (inactive)
• CC1(C)c2ccccc2N2C(c3ccccc3)=NOC21C (stereo unspecified) = > 100 µM (inactive)
• CNc1cc(Cl)ccc1C(=O)N1CCC[C@H]1CO = > 100 µM (inactive)
• O=Cc1cn(CCCCCn2cc(C=O)c3ccccc32)c2ccccc12 = > 100 µM (inactive)
• O=S(=O)(O)c1ccc(/N=N/c2ccc(/N=N/c3c(O)c(S(=O)(=O)O)cc4cc(S(=O)(=O)O)ccc34)cc2)cc1 = > 100 µM (inactive)

====

# Test system: KM12
# TEST NAME: NCI tumour cell line growth inhibition, 48 h
Calls of active or inactive are those of the source. No stated cut-off is given here; in the data, active = GI50 up to about 1.1 µM and inactive = higher.
Outcomes: 1.0 for active, 0.0 for inactive

* Clc1ccc(/N=C2\c3ccccc3CN2c2ccc(Cl)cc2)cc1 | 0.0
* C[C@@H]1C[C@H]2CC[C@H](O2)[C@H](C)C(=O)O[C@@H](C)C[C@@H]2CC[C@@H](O2)[C@@H](C)C(=O)O[C@H](C)C[C@H]2CC[C@H](O2)[C@H](C)C(=O)O[C@@H](C)C[C@@H]2CC[C@@H](O2)[C@@H](C)C(=O)O1 | 1.0
* Cc1nn(C(=O)c2ccc(Cl)cc2)c2c1C(c1ccc([N+](=O)[O-])cc1)SC(=N)N2 (configuration not stated) | 0.0
* NC(=O)c1nc[nH]c1/N=N/SCC(N)C(=O)O (configuration not stated) | 0.0
* CCOC(=O)CC1c2ccc(O)cc2OC(=O)C1c1ccc(N)cc1 (configuration not stated) | 0.0
* Cc1c[nH]c(C(=O)O)c1-c1ccc2c(-c3ccccc3)nc3ccccc3n12 | 0.0
* COc1ccc(SCc2cc(OCc3ccccc3)c(OCc3ccccc3)c(OCc3ccccc3)c2)cc1 | 0.0

Entry source: ChEMBL document CHEMBL1201862
